Measured inhibition, listed per entry for reference.
- TARGET_SYSTEM: C-X-C chemokine receptor type 6 (Homo sapiens) (UniProt O00574)
- Sequence (O00574 whole entry, looked up): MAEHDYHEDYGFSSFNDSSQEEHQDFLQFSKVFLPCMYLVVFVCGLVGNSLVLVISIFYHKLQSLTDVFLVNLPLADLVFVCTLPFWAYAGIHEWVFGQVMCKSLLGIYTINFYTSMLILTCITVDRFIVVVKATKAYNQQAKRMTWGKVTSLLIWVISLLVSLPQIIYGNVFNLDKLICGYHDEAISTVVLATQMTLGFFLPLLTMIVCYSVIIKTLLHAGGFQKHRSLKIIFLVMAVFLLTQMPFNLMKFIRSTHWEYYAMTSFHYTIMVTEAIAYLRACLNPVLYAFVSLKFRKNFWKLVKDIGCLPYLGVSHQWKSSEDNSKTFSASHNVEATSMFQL
- ASSAY_NOTES: blockade of CXCL16-induced CXCR6 beta-arrestin recruitment – cell-based, luminescence, CHO-K1 PathHunter, 1536-well, primary screen (AID 602244);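 further: antagonist mode with CXCL16 agonist at 10 nM final; 0% = 10 nM CXCL16 with DMSO and 100% = unstimulated wells without agonist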
- RECORDED_CONDITIONS: at 20 µM, hits give high values
The campaign covered roughly 360,000 compounds. About 1,300 (0.36%) were called active. The sample as a whole holds a higher share of actives than the screen did.
Express your answer in %, writing the number without its unit.

These solved cases illustrate the format of a correct answer.
C=CCN1C(=O)C2(C(C(=O)OCC)=C(N)Oc3c2c(=O)oc2ccccc32)c2ccccc21 (configuration not stated); -2.4
Cn1c(O)c(C=NCCCC(=O)O)c(=O)n(C)c1=O; -3.2
O=C(N/N=C/c1c(O)n(Cc2ccccc2)c(=O)[nH]c1=O)c1ccccc1; 7.9

Attention now shifts to the item below.
Q. Which inhibition is reported for this compound? COc1ccc(S(=O)(=O)NCc2ccc(C(=O)N3CCC4(CC3)OCCO4)cc2)cc1
A. 3.3

Entry source: PubChem BioAssay AID602244
